# Tested on: HL-60(TB) leukemia
# Assay explanation: NCI-60 one-dose screen, 48 h
# Measurement setup: 10 µM unless noted
# Procedure: Growth inhibition of the HL-60(TB) human tumor cell line is measured as a screen for anti-cancer activity. Cells are grown in 96 well plates and exposed to the test compound for 48 hours. Compounds are tested at a single concentration, which is 10^-5 M for most compounds. The reported endpoint is percent growth (GI% or GIPRCNT), where numbers from 0 - 100% represent growth inhibition, and numbers from -100% - 0 represent cell death. For example, a value of 40 represents 60% growth inhibition. […]
This is part of a sample that, as a whole, favours compounds with a hit. Of some 83,000 tested, about 20% had one in any assay. Activity calls are given as the source filed them. Rule for the calls: active = growth percent below 10; inactive = the rest.
Lab note: assign the record to one of active, inactive

Look over these answered cases.
Compound	Test target	Class
COc1cc(CCn2nnc3c(Nc4ccc(N5CCOCC5)cc4)ncnc32)cc(OC)c1	HL-60(TB) leukemia	inactive
CO[C@H]1CC(O[C@@H]2/C(C)=C/C[C@@H]3C[C@@H](C[C@]4(C=C[C@H](C)[C@@H](C5CCCCC5)O4)O3)OC(=O)[C@@H]3C=C(C)[C@@H](O)[C@H]4OC/C(=C\C=C\[C@@H]2C)[C@]43O)O[C@@H](C)C1O[C@H]1C[C@H](OC)[C@@H](O)[C@H](C)O1 (stereo partly drawn)	HL-60(TB) leukemia	active
CCCN(CCC)CCC(O)c1cc2c(c3ccccc13)CCCC2 (stereo not drawn)	HL-60(TB) leukemia	inactive
COc1cccc(-c2nc3sccn3c2-c2ccnc(NCCN3CCCNS3(=O)=O)n2)c1	HL-60(TB) leukemia	inactive
N[C@H](C(=O)O)[C@@H]1CC(Cl)=NO1	HL-60(TB) leukemia	inactive

Task: Hi team, can someone confirm the assay call for `O=C(c1ccc(C(F)(F)F)c(Cl)c1)N(Cc1ccc(Cl)cc1)c1ccc(-c2cc(C(F)(F)F)[nH]n2)c(O)c1` ?
Output: active

Task: Tell me the recorded outcome of this test for `N#Cc1c(-c2ccc(Cl)cc2)nc(NN=Cc2ccco2)nc1N1CCOCC1` .
Output: inactive

Task: Hey, what did the test say about `O=C(O)[C@@H](Cc1ccc2ccccc2c1)NC(=O)n1c2ccccc2c2ccccc21` ?
Output: active

Task: Each compound tested received a call. Report the one for `CCN(CC)Cc1cc(Nc2ccnc3ccc(OC)cc23)ccc1O` .
Output: inactive

Task: Which outcome was assigned to `CC(=O)Nc1ccc(C(=O)COc2cccc(/C=C3\CCc4ccccc4C3=O)c2)cc1` in this test?
Output: inactive

Task: Please share the test call associated with `CNS(=O)(=O)c1n[nH]nc1-c1cc(C(C)(C)C)c(O)c(C(C)(C)C)c1` .
Output: inactive

###

# System: HL-60(TB) leukemia
# Assay explanation: NCI-60 one-dose screen, 48 h (100 = growth as untreated, 0 = no growth, -100 = all killed)
# Measurement setup: 10 µM unless noted
Compounds without any hit were thinned out: in the full panel of roughly 83,000, 20% have a hit.
Parameter: growth (%)
Write the value in % as a bare number.

Known results for compounds:
>>> df
                                   compound  measurement
0                        FC(F)(F)c1nn[nH]n1          102
1  COc1cc2c(cc1O)c(=O)n(CCN(C)C)c1c3cc4c(cc3ncc21)OCO4        -29.2
2  COc1ccc(-c2csc(NC(=O)Nc3nc(-c4ccc(OC)cc4)cs3)n2)cc1         80.6
3  O=C1C=CC2(O)OC/C(=C\c3ccccc3)C(O)=C2C1=O (stereo not given)         4.63
4  C=C1C(=O)O[C@H]2[C@H]1CC/C(COC(=O)NCCc1c[nH]c3ccc(OC)cc13)=C\CC[C@@]1(C)O[C@@H]21        -42.8
5  COC(=O)Nc1ccc(-c2nc(-c3cccc(OC)c3)c(-c3ccnc(Br)c3)[nH]2)cc1         44.2

Task: Give growth for `Cc1ccc(/C=N/NC(=O)CSc2nc3ccccc3c(=O)n2Cc2ccc(S(N)(=O)=O)cc2)cc1` tested on HL-60(TB) leukemia.
Output: 97.8

Task: Fill in: growth on HL-60(TB) leukemia, entry CNc1nc2c(s1)C(c1cc(F)ccc1F)CC(=O)N2 (stereo not given)
Output: 46.7

Task: Enter growth (test system HL-60(TB) leukemia) for `CCCCCCNc1nc(NCCCCCC)c2[nH]c(NCCCCCC)nc2n1`
Output: -60.2

Task: Report its growth with HL-60(TB) leukemia as the test system: `Cc1nc([P+](c2ccccc2)(c2ccccc2)c2ccccc2)c(N2CCCCC2)o1`
Output: -2.68
